test system: K. pneumoniae MP-546; experiment: Broth dilution MIC determination (CLSI), K. pneumoniae MP-546; assay type: cell-based; details: Klebsiella pneumoniae, MP546; strain MP-546, broth dilution
PROPERTY NAME: MIC

>  <COMPOUND>
CO[C@]1(C)C[C@@H](C)CN(C)[C@@H]([C@H]2CCN(C(C)=O)C2)COC(=O)C(C)(C)C(=O)[C@H](C)[C@H]1O[C@@H]1O[C@H](C)C[C@H](N(C)C)[C@H]1O [Compound 140]

>  <MIC>
> 32 µg/mL

$$$$
>  <COMPOUND>
CCCN1CC([C@@H]2COC(=O)C(C)(C)C(=O)[C@H](C)[C@@H](O[C@@H]3O[C@H](C)C[C@H](N(C)C)[C@H]3O)[C@](C)(OC)C[C@@H](C)CN2C)C1 [Compound 76]

>  <MIC>
< 4 µg/mL

$$$$
>  <COMPOUND>
CO[C@]1(C)C[C@@H](C)CN(C)[C@H]([C@@H]2CCN(C)C2)COC(=O)C(C)(C)C(=O)[C@H](C)[C@H]1O[C@@H]1O[C@H](C)C[C@H](N(C)C)[C@H]1O [Compound 182]

>  <MIC>
< 4 µg/mL

$$$$
>  <COMPOUND>
CO[C@]1(C)C[C@@H](C)CN(C)[C@H]([C@H]2C[C@@H](N(C)CC3CCCO3)C2)COC(=O)C(C)(C)C(=O)[C@H](C)[C@H]1O[C@@H]1O[C@H](C)C[C@H](N(C)C)[C@H]1O (some centres unmarked) [Compound 31]

>  <MIC>
< 4 µg/mL

$$$$

Data point: CO[C@]1(C)C[C@@H](C)CN(C)[C@H](c2ccc(B(O)O)cc2)COC(=O)C(C)(C)C(=O)[C@H](C)[C@H]1O[C@@H]1O[C@H](C)C[C@H](N(C)C)[C@H]1O [Compound 133] ; MIC = > 32 µg/mL

----------
test system: S. aureus MP-12; test: Broth dilution MIC determination (CLSI), S. aureus MP-12; type: cell-based; conditions: Staphylococcus aureus, MP12; strain MP-12, broth dilution
Provide the reported MIC of each item.

>  <COMPOUND>
CO[C@]1(C)C[C@@H](C)CN(C)[C@H]([C@@H]2CCCN(C)C2)COC(=O)C(C)(C)C(=O)[C@H](C)[C@H]1O[C@@H]1O[C@H](C)C[C@H](N(C)C)[C@H]1O

>  <MIC>
> 32 µg/mL

$$$$

Hi! Can you tell me MIC for each of these compounds?
1. CO[C@]1(C)C[C@@H](C)CN(C)[C@H](c2ccc(-c3cccnc3)cc2)COC(=O)C(C)(C)C(=O)[C@H](C)[C@@H]1O[C@@H]1O[C@@H](C)C[C@H](N(C)C)[C@H]1O
2. CO[C@]1(C)C[C@@H](C)CN(C)[C@@H](C2CN(C)C2)COC(=O)C(C)(C)C(=O)[C@H](C)[C@H]1O[C@@H]1O[C@H](C)C[C@H](N(C)C)[C@H]1O
3. CO[C@]1(C)C[C@@H](C)CN(C)[C@H](C2CN(CC3CCCO3)C2)COC(=O)C(C)(C)C(=O)[C@H](C)[C@H]1O[C@@H]1O[C@H](C)C[C@H](N(C)C)[C@H]1O (stereo partly shown)
4. CCN(C)CC(C)(C)CC(=O)N1CC([C@@H]2COC(=O)C(C)(C)C(=O)[C@H](C)[C@@H](O[C@@H]3O[C@H](C)C[C@H](N(C)C)[C@H]3O)[C@](C)(OC)C[C@@H](C)CN2C)C1
5. CO[C@]1(C)C[C@@H](C)CN(C)[C@H]([C@H]2C[C@H](N(C)CC(C)C)C2)COC(=O)C(C)(C)C(=O)[C@H](C)[C@H]1O[C@@H]1O[C@H](C)C[C@H](N(C)C)[C@H]1O

(A)
1: > 32 µg/mL; 2: > 32 µg/mL; 3: 4 to 32 µg/mL; 4: 4 to 32 µg/mL; 5: 4 to 32 µg/mL

Here are 2 compounds. What values of MIC were reported for them?
1. CO[C@]1(C)C[C@@H](C)CN(CC(C)C)[C@H](C2CN(C(=O)CN(C)C)C2)COC(=O)C(C)(C)C(=O)[C@H](C)[C@H]1O[C@@H]1O[C@H](C)C[C@H](N(C)C)[C@H]1O
2. CO[C@]1(C)C[C@@H](C)CN(C)[C@@H]([C@H]2CC[C@H](N(C)C(=O)CNC3CC3)CC2)COC(=O)C(C)(C)C(=O)[C@H](C)[C@H]1O[C@@H]1O[C@H](C)C[C@H](N(C)C)[C@H]1O

(A)
> 32 µg/mL
> 32 µg/mL

// for each compound in input: emit MIC
1. CCN(C)[C@H]1C[C@H]([C@@H]2COC(=O)C(C)(C)C(=O)[C@H](C)[C@@H](O[C@@H]3O[C@H](C)C[C@H](N(C)C)[C@H]3O)[C@](C)(OC)C[C@@H](C)CN2C)C1
2. CCCN1CCC([C@H]2COC(=O)C(C)(C)C(=O)[C@H](C)[C@@H](O[C@@H]3O[C@H](C)C[C@H](N(C)C)[C@H]3O)[C@](C)(OC)C[C@@H](C)CN2C)CC1

(A)
["4 to 32 µg/mL", "4 to 32 µg/mL"]

----------
tested on: S. aureus MP-12; assay: Broth dilution MIC determination (CLSI), S. aureus MP-12; assay type: cell-based; settings: Staphylococcus aureus, MP12; strain MP-12, broth dilution
Kindly state MIC for each of the entries shown.

Use these answered entries as a reference point.
>  <CPD SMILES>
CO[C@]1(C)C[C@@H](C)CN(C)[C@@H](C2CCN(CC3CCC3)CC2)COC(=O)C(C)(C)C(=O)[C@H](C)[C@H]1O[C@@H]1O[C@H](C)C[C@H](N(C)C)[C@H]1O

>  <PROPERTY NAME>
MIC

>  <RESULT>
4 to 32 µg/mL

$$$$
>  <CPD SMILES>
CCN(CC)[C@H](C)C(=O)N1CC([C@H]2COC(=O)C(C)(C)C(=O)[C@H](C)[C@@H](O[C@@H]3O[C@H](C)C[C@H](N(C)C)[C@H]3O)[C@](C)(OC)C[C@@H](C)CN2C)C1

>  <PROPERTY NAME>
MIC

>  <RESULT>
> 32 µg/mL

$$$$

# return MIC for each item in the list
1. CCCN1C[C@H](C)C[C@@](C)(OC)[C@H](O[C@@H]2O[C@H](C)C[C@H](N(C)C)[C@H]2O)[C@@H](C)C(=O)C(C)(C)C(=O)OC[C@H]1[C@H]1C[C@H](N(C)CC2CC2)C1
2. CO[C@]1(C)C[C@@H](C)CN(C)[C@H](c2ccncc2)COC(=O)C(C)(C)C(=O)[C@H](C)[C@H]1O[C@@H]1O[C@H](C)C[C@H](N(C)C)[C@H]1O
3. CO[C@]1(C)C[C@@H](C)CN(C)[C@H](C2CN(C(=O)[C@@H]3CCN(CC4CC4)C3)C2)COC(=O)C(C)(C)C(=O)[C@H](C)[C@H]1O[C@@H]1O[C@H](C)C[C@H](N(C)C)[C@H]1O

(A)
4 to 32 µg/mL
> 32 µg/mL
> 32 µg/mL

----------
Give MIC for every item shown.
system: K. pneumoniae MP-546; experiment: Broth dilution MIC determination (CLSI), K. pneumoniae MP-546; format: cell-based; conditions: Klebsiella pneumoniae, MP546; strain MP-546, broth dilution

Hi, could you look up MIC for each item in my list?
1. CO[C@]1(C)C[C@@H](C)CN(C)[C@H](C2CCN(CC(F)F)CC2)COC(=O)C(C)(C)C(=O)[C@H](C)[C@H]1O[C@@H]1O[C@H](C)C[C@H](N(C)C)[C@H]1O
2. CCCN1C[C@H](C)C[C@@](C)(OC)[C@H](O[C@@H]2O[C@H](C)C[C@H](N(C)C)[C@H]2O)[C@@H](C)C(=O)C(C)(C)C(=O)OC[C@H]1C1CN(C(=O)CN(C)C)C1
3. CO[C@]1(C)C[C@@H](C)CN(C)[C@H](C2CN(C(=O)CCCN(C)CC3CCC3)C2)COC(=O)C(C)(C)C(=O)[C@H](C)[C@H]1O[C@@H]1O[C@H](C)C[C@H](N(C)C)[C@H]1O

(A)
4 to 32 µg/mL
4 to 32 µg/mL
4 to 32 µg/mL

----------
test system: K. pneumoniae MP-546; assay: Broth dilution MIC determination (CLSI), K. pneumoniae MP-546; assay type: cell-based; conditions: Klebsiella pneumoniae, MP546; strain MP-546, broth dilution
PROPERTY NAME: MIC

Solved cases (2 shown):
>  <MOLECULE>
CO[C@]1(C)C[C@@H](C)CN(C)[C@H]([C@H]2C[C@H](N(C)C)C2)COC(=O)C(C)(C)C(=O)[C@H](C)[C@H]1O[C@@H]1O[C@H](C)C[C@H](N(C)C)[C@H]1O [Compound 30]

>  <RESULT>
< 4 µg/mL

$$$$
>  <MOLECULE>
C=CCN1CC=C([C@H]2[C@@H](C)OC(=O)C(C)(C)C(=O)[C@H](C)[C@@H](O[C@@H]3O[C@H](C)C[C@H](N(C)C)[C@H]3O)[C@](C)(OC)C[C@@H](C)CN2C)CC1 [Compound 1]

>  <RESULT>
> 32 µg/mL

$$$$

So for CCCN1CCC([C@]2(C)COC(=O)C(C)(C)C(=O)[C@H](C)[C@@H](O[C@@H]3O[C@H](C)C[C@H](N(C)C)[C@H]3O)[C@](C)(OC)C[C@@H](C)CN2C)CC1 [Compound 143] , the logged MIC turned out to be < 4 µg/mL
